assay-info: gradient 5% acetonitrile 3 min, to 50% in 2 min, to 85% in 15 min, held 3 min, 100 µL/min
run-conditions: column: Zorbax Extend-C18 2.1 x 50 mm; eluents: water / acetonitrile, 0.1% formic acid
Entries and their RP-LC retention time

Examples with their reported RP-LC retention time follow.
> print(dat)
                                   compound  result
1  Cc1cnc(-c2cccnc2)n1C1CCN(S(=O)(=O)c2ccc3c(c2)OCCO3)C1 (centres undefined)   633 s
2  CC(=O)N1CCc2cc(N3CC(C(=O)NCc4cccc(F)c4)CC3=O)ccc21 (centres undefined)   741 s
3  COc1ccc(C2Cn3cnc(C(=O)N4CCC(C(=O)NCC5CCCO5)CC4)c3CO2)cc1 (centres undefined)   655 s

Input line: Would you kindly share the measured RP-LC retention time for "COc1ccc(NC(=O)CSc2nccc3c2ccn3C)c(OC)c1" ?
Output line: 687 s

Input line: Item: "COc1cccc(-c2noc(CCn3nc(-c4ccc(Cl)cc4)ccc3=O)n2)c1OC"
Output line: 1010 s

Input line: Item: "COc1ccc(-c2nnc(-c3cc(S(=O)(=O)N4CCCC4)ccc3Cl)o2)cc1"
Output line: 1040 s

* * *

assay-info: gradient 5% acetonitrile 3 min, to 50% in 2 min, to 85% in 15 min, held 3 min, 100 µL/min
run-conditions: column: Zorbax Extend-C18 2.1 x 50 mm; eluents: water / acetonitrile, 0.1% formic acid
Entries and their RP-LC retention time
Hi! Could you send only the number? It should be in s, unit omitted.

> print(dat)
                                   compound  measured.number
1    CCOC(=O)c1noc2nc(C)nc(NCc3ccccc3OC)c12             1100
2  CC1=C(c2ccccc2)S(=O)(=O)N=C1N1CCCN(S(=O)(=O)c2cccnc2)CC1              769
3  O=c1ccc(-c2ccccc2)nn1CCc1nc(-c2ccncc2)no1              727
4  Cc1ccc(-c2cn3c(CC(=O)Nc4ccc(C)c(F)c4)csc3n2)cc1C              933
5  Cc1c(Cl)cccc1S(=O)(=O)NCC1CCN(C(=O)c2cc3ccccc3o2)CC1              934

Input line: Would you kindly share the measured RP-LC retention time for "CCCN1CCN(c2ncnc3sc(C(=O)NCCCN4CCCC4)c(C)c23)CC1" ?
Output line: 583

Input line: Item: "Cc1noc(C2CN(Cc3cc(Br)ccc3F)C2)n1"
Output line: 554

Input line: Item: "Cc1cc(=O)n(CC(=O)Nc2ccc(F)cc2)c(-c2ccc(Cl)cc2)n1"
Output line: 1120

Input line: Item: CCOc1ccc(-c2cc3c(=O)n(CC(O)c4ccc(C(C)C)cc4)ccn3n2)cc1 (centres undefined)
Output line: 1120

* * *

Entries and their RP-LC retention time
assay-info: gradient 5% acetonitrile 3 min, to 50% in 2 min, to 85% in 15 min, held 3 min, 100 µL/min
run-conditions: column: Zorbax Extend-C18 2.1 x 50 mm; eluents: water / acetonitrile, 0.1% formic acid
Hi! Could you send only the number? It should be in s, unit omitted.

Input line: Would you kindly share the measured RP-LC retention time for Cn1cc(CCN2CCC(C(=O)NCC3CCCO3)CC2)c2cccnc21 (centres undefined) ?
Output line: 562

Input line: Item: "O=C(CCc1ccc2c(c1)CN(S(=O)(=O)c1cccc3nsnc13)CCO2)NC1CC1"
Output line: 756

Input line: Item: "CCn1cnc(S(=O)(=O)N2CCC(C(=O)Nc3cccc4c3CCCC4)CC2)c1"
Output line: 792

Input line: Item: "COc1ccc(/C=C/c2nn3c(COc4ccc(OC)cc4)nnc3s2)cc1"
Output line: 973

Input line: Item: O=C(c1ccoc1)N1CCCC(OCc2nc(C3CC3)no2)C1 (centres undefined)
Output line: 742

Input line: Item: "COc1ccc(-n2c(=O)n(C)c(=O)c3cc(C(=O)NCc4ccccc4OC)cnc32)cc1"
Output line: 859

Input line: Item: "CCCCNC(=O)Cn1c(N)nc(CC)cc1=O"
Output line: 579

Input line: Item: "Cc1noc(CNC(=O)C2CCN(S(=O)(=O)c3cccs3)CC2)n1"
Output line: 646

Input line: Item: "O=C(COc1ccccc1Cl)Nc1ccc(-c2nc(-c3ccccc3)no2)cc1"
Output line: 1280

* * *

assay-info: gradient 5% acetonitrile 3 min, to 50% in 2 min, to 85% in 15 min, held 3 min, 100 µL/min
run-conditions: column: Zorbax Extend-C18 2.1 x 50 mm; eluents: water / acetonitrile, 0.1% formic acid
Entries and their RP-LC retention time
Hi! Could you send only the number? It should be in s, unit omitted.

Examples with their reported RP-LC retention time follow.
> print(dat)
                                   compound  unit.text  measured.number
1  CCN1CCCn2cc(S(=O)(=O)Nc3ccc(F)c(C)c3)cc2C1=O          s              755
2  Cc1nnc(N2CCCC(C(=O)NCCC3=CCCCC3)C2)c2nn(-c3ccccc3)c(C)c12 (centres undefined)          s              803
3  COc1ccc(C2(C(=O)N3CCN(S(=O)(=O)c4c(C)nn(C)c4C)CC3)CC2)cc1          s              754
4  COC(=O)c1cc(OCC(=O)Nc2ccc(F)cc2)c2cc(OC)c(OC)cc2n1          s              750

// next entry
Input line: Would you kindly share the measured RP-LC retention time for "CCOC(=O)c1c(C)[nH]c(C(=O)N2CCC(CC(=O)N3CCN(c4ccccc4)CC3)CC2)c1C" ?
Output line: 836

* * *

Entries and their RP-LC retention time
assay-info: gradient 5% acetonitrile 3 min, to 50% in 2 min, to 85% in 15 min, held 3 min, 100 µL/min
run-conditions: column: Zorbax Extend-C18 2.1 x 50 mm; eluents: water / acetonitrile, 0.1% formic acid
Hi! Could you send only the number? It should be in s, unit omitted.

> print(dat)
                                   compound  measured.number
1  CC1CCCN(c2nn(CC(=O)Nc3ccc4c(c3)OCCO4)c(=O)c3ccccc23)C1 (centres undefined)             1030
2  CN(C)C(CNS(=O)(=O)/C=C/c1ccccc1)c1cn(C)c2ccccc12 (centres undefined)              602
3  CCOC(=O)COc1cc(-c2ccc(C)cc2)nc2ccc(NC(=O)c3ccco3)cc12              778
4  CN1c2ccc(F)cc2C(=O)NC12CCN(C(=O)c1ccc3c(c1)OCO3)CC2              724

Input line: Would you kindly share the measured RP-LC retention time for O=C(NCCC1=CCCCC1)C(=O)NCC(O)c1ccc(C(F)(F)F)cc1 (centres undefined) ?
Output line: 949

Input line: Item: "CCc1nc(-c2cc(S(=O)(=O)NCC(=O)N3CCN(c4ccc(F)cc4)CC3)c(C)s2)no1"
Output line: 959

Input line: Item: CCn1c(=O)n(CC(=O)NCCN2CCCCC2C)c(=O)c2cnc(-c3ccc(Cl)cc3)nc21 (centres undefined)
Output line: 751

Input line: Item: "O=C(NC1CC1)c1ccc(-c2cccs2)nc1"
Output line: 716

Input line: Item: CCCNC(=O)C1CCCN(c2ccc(SCC(=O)NCc3cc(F)cc(F)c3)nn2)C1 (centres undefined)
Output line: 646

* * *

Entries and their RP-LC retention time
assay-info: gradient 5% acetonitrile 3 min, to 50% in 2 min, to 85% in 15 min, held 3 min, 100 µL/min
run-conditions: column: Zorbax Extend-C18 2.1 x 50 mm; eluents: water / acetonitrile, 0.1% formic acid
Hi! Could you send only the number? It should be in s, unit omitted.

> print(dat)
                                   compound  measured.number
1    CCN(CC)C(=O)c1ccc2c(c1)CCCN2S(C)(=O)=O              748
2  CCOC(=O)c1cccc(NC(=O)CSc2ccc(N3CCCC(C(=O)NC4CC4)C3)nn2)c1 (centres undefined)              680
3  CCN1C(=O)c2cccnc2Sc2cc(NC(=O)CCc3ccccc3OC)ccc21              871
4  O=C(NC1CCCCC1)c1ccc2ccnc(N3CCN(c4ccccc4F)CC3)c2c1              908

Input line: Would you kindly share the measured RP-LC retention time for "CCN1CCN(C(=O)C2CCN(S(=O)(=O)c3cc(-c4noc(C)n4)cs3)CC2)CC1" ?
Output line: 615

Input line: Item: "Cc1ccc(N(C)S(=O)(=O)c2cc(-c3cc(C(F)(F)F)on3)sc2C)cc1"
Output line: 1320

Input line: Item: "Cn1nc(-c2nnc(-c3ccccc3Cl)o2)c2c1CCN(C(=O)Nc1ccccc1)C2"
Output line: 849

Input line: Item: CC(C)c1nccn1C1CN(C(=O)C(C)c2ccccc2)C1 (centres undefined)
Output line: 612

Input line: Item: "Cc1oc(-c2[nH]ncc2C(=O)N2CCOCC2)cc1S(=O)(=O)Nc1cccc(F)c1"
Output line: 669
